- Assayed Target: cloned human NK1 receptors (Homo sapiens)
- Construct: expressed in transfected cells
- Protocol Notes: Ca2+ measurements using FLIPR for NK1 activity in CHO cells
- Format: cell-based
- Experimental Context: substance P 10^-8 M as agonist; compound applied 7 min before; pA2 calculated from IC50
Satisfied means recorded Kb is 3 nM or above; Not satisfied means it is below 3 nM.

Below are worked cases with known answers.
INSERT INTO results (compound, cat) VALUES
  ('CN(C[C@@H](CCN1CCN(C(CO)c2ccco2)CC1)c1ccc(Cl)c(Cl)c1)C(=O)c1cc(C#N)cc2ccccc12 (stereo partly drawn) [Compound 25]', 'Satisfied'),
  ('CN(C[C@@H](CCN1CCN([C@@H](c2cc3ccccc3s2)[C@H](O)CO)CC1)c1ccc(Cl)c(Cl)c1)C(=O)c1cc(C#N)cc2ccccc12', 'Satisfied'),
  ('CN(C[C@@H](CCN1CCN([C@@H](c2ccsc2)[C@H](O)CO)CC1)c1ccc(Cl)c(Cl)c1)C(=O)c1cc(C#N)cc2ccccc12', 'Not satisfied'),
  ('CN(C[C@@H](CCN1CCN([C@@H](c2cccs2)[C@H](O)CO)CC1)c1ccc(Cl)c(Cl)c1)C(=O)c1cc(C#N)cc2ccccc12', 'Satisfied'),
  ('CN(C[C@@H](CCN1CCN([C@@H](c2ccc(Cl)s2)[C@H](O)CO)CC1)c1ccc(Cl)c(Cl)c1)C(=O)c1cc(C#N)cc2ccccc12', 'Satisfied');

Kindly consider the entry below.
[in] Reported Kb at or above 3 nM? CN(C[C@@H](CCN1CCN(C(CO)c2ccco2)CC1)c1ccc(Cl)c(Cl)c1)C(=O)c1cc(C#N)cc2ccccc12 (stereo partly drawn) [Compound 28]
[out] Not satisfied

====

The following compounds are shown together with reported Ki values.
- Assayed Target: human NK1 receptors (Homo sapiens, UniProt P25103)
- Construct: expressed in transfected cells; host or cells: CHO cells (membrane preparation)
- Sequence (P25103 whole entry): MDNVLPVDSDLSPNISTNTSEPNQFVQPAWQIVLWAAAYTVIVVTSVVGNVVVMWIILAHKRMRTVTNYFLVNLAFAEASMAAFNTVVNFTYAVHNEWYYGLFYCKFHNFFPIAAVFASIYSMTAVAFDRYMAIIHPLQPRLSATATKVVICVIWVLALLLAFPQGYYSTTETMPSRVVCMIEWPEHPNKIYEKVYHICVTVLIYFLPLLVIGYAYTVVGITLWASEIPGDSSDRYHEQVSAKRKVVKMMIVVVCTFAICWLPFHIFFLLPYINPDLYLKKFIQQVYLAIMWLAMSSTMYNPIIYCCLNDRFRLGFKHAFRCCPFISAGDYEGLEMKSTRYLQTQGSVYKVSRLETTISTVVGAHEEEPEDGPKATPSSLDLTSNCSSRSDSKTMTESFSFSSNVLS
- Protocol Notes: Binding of the test substances to NK1 receptors in vitro ([3H]-Substance P displacement, CHO cell membranes)
- Experimental Context: [3H]-Substance P as ligand; membranes of CHO cells expressing the human NK1 receptor; Ki calculated from IC50; read-out: pKi (NK1) (converted)
- Experimental: In The Netherlands, the affinity of the test substances to human NK1 receptors was measured in vitro. The receptor binding studies were performed with [^3H]-Substance P as ligand. […] The fraction remaining in the filter was washed several times with buffer solution and then the radioactivity of the fraction remaining in the filter was measured using a beta scintillation counter. […]
Answer format: numeric, nM implied, no suffix.

Past entries and their recorded results:
INSERT INTO assay_data (compound, experimental_readout, numeric_result) VALUES
  ('CN(C[C@@H](CCN1CCN([C@@H](c2ccsc2)[C@H]2COC(=O)O2)CC1)c1ccc(Cl)c(Cl)c1)C(=O)c1cc(C#N)cc2ccccc12 [Compound 10]', 'Ki', 10),
  ('CN(C[C@@H](CCN1CCN(C(CO)c2ccco2)CC1)c1ccc(Cl)c(Cl)c1)C(=O)c1cc(C#N)cc2ccccc12 (stereo partly drawn) [Compound 25]', 'Ki', 7.94),
  ('CN(C[C@@H](CCN1CCN([C@@H](c2ccco2)[C@H]2COC(=O)O2)CC1)c1ccc(Cl)c(Cl)c1)C(=O)c1cc(C#N)cc2ccccc12 [Compound 11]', 'Ki', 7.94),
  ('CN(C[C@@H](CCN1CCN([C@@H](c2cccs2)[C@H](O)CO)CC1)c1ccc(Cl)c(Cl)c1)C(=O)c1cc(C#N)cc2ccccc12 [Compound 9]', 'Ki', 10);

Fill in: human NK1 receptors (Homo sapiens, UniProt P25103) Ki for CN(C[C@@H](CCN1CCN([C@@H](c2ccc3c(c2)OCO3)[C@H](O)CO)CC1)c1ccc(Cl)c(Cl)c1)C(=O)c1cc(C#N)cc2ccccc12 [Compound 21] = 2

Ki of CN(C[C@@H](CCN1CCN(C(CO)(CO)c2ccco2)CC1)c1ccc(Cl)c(Cl)c1)C(=O)c1cc(C#N)cc2ccccc12 [Compound 6] , assay on human NK1 receptors (Homo sapiens, UniProt P25103), is 5.01

====

- Assayed Target: NK2 receptors (Cavia porcellus)
- Sequence (Q64077 1-402): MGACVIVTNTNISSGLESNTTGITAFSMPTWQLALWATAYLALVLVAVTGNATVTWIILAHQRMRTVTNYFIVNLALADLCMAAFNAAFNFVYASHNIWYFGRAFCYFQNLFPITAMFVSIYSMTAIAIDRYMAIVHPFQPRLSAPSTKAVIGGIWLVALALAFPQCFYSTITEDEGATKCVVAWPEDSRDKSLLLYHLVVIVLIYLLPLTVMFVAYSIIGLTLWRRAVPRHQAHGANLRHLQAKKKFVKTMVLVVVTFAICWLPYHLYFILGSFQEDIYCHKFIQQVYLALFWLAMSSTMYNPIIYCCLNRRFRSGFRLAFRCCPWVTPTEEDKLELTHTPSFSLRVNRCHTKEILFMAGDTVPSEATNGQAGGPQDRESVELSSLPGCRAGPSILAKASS
- Protocol Notes: NK-2-receptor-antagonistic effectiveness in vivo in anaesthetised guinea pigs (NKA test stimulus: late hypotension, bronchoconstriction, colonic pressure)
- Set-up: from tissue; host or cells: whole anaesthetised guinea pig (in vivo); species or system Pirbright-White guinea pigs
- Experimental Context: guinea pig, iv, read-out: ED50 iv after 1 min (cumulative) NK2 (colonic motility)
// returns 0.0 unless ED50 is strictly below 0.1 µmol/kg, in which case 1.0

Example entries and their recorded answers appear below.
INSERT INTO measurements (smiles, cat) VALUES
  ('CN(C[C@@H](CCN1CCN([C@@H](c2ccsc2)[C@H](O)CO)CC1)c1ccc(Cl)c(Cl)c1)C(=O)c1cc(C#N)cc2ccccc12', 0.0),
  ('CN(C[C@@H](CCN1CCN([C@@H](c2cccs2)[C@H](O)CO)CC1)c1ccc(Cl)c(Cl)c1)C(=O)c1cc(C#N)cc2ccccc12', 0.0),
  ('CN(C[C@@H](CCN1CCN([C@@H](c2ccco2)[C@H]2COC(=O)O2)CC1)c1ccc(Cl)c(Cl)c1)C(=O)c1cc(C#N)cc2ccccc12', 0.0),
  ('CN(C[C@@H](CCN1CCN(C(CO)(CO)c2ccco2)CC1)c1ccc(Cl)c(Cl)c1)C(=O)c1cc(C#N)cc2ccccc12', 1.0);

[in] Consider CN(C[C@@H](CCN1CCN([C@@H](c2ccccc2)[C@H](O)CO)CC1)c1ccc(Cl)c(Cl)c1)C(=O)c1cc(C#N)cc2ccccc12 . Does its ED50 lie strictly below 0.1 µmol/kg?
[out] 0.0

[in] ED50 under 0.1 µmol/kg? Item: CN(C[C@@H](CCN1CCN([C@@H](c2ccco2)[C@H](O)[C@@H](O)[C@H](O)CO)CC1)c1ccc(Cl)c(Cl)c1)C(=O)c1cc(C#N)cc2ccccc12
[out] 1.0

[in] Report whether reported ED50 is lower than 0.1 µmol/kg (strictly) for CN(C[C@@H](CCN1CCN([C@@H](c2ccsc2)[C@H]2COC(=O)O2)CC1)c1ccc(Cl)c(Cl)c1)C(=O)c1cc(C#N)cc2ccccc12
[out] 0.0

[in] Determine whether this molecule shows ED50 lower than 0.1 µmol/kg (ties excluded): CN(C[C@@H](CCN1CCN([C@@H](c2ccco2)[C@H](O)CO)CC1)c1ccc(Cl)c(Cl)c1)C(=O)c1cc(C#N)cc2ccccc12
[out] 1.0

====

Listed here: items and their measured ED50.
- Assayed Target: NK1 receptors (Cavia porcellus, UniProt P30547)
- Sequence (P30547 whole entry): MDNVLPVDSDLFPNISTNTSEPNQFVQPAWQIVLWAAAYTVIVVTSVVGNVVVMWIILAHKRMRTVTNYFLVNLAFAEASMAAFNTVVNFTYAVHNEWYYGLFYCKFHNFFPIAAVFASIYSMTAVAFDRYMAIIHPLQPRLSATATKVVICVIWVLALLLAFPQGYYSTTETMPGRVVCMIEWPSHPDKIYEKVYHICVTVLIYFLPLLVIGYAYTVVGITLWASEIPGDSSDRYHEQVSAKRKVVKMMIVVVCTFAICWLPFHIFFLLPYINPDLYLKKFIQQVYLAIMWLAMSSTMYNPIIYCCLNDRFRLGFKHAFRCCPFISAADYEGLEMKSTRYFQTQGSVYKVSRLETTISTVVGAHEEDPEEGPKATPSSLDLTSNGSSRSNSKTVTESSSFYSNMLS
- Protocol Notes: NK-1-receptor-antagonistic effectiveness in vivo in anaesthetised guinea pigs (NKA test stimulus, early hypotension)
- Design: from tissue; host or cells: whole anaesthetised guinea pig (in vivo); species or system Pirbright-White guinea pigs
- Experimental Context: guinea pig, iv, read-out: ED50 iv after 1 min (cumulative) NK1 (early hypotension)
// note: answer is a bare numeric in µmol/kg

INSERT INTO measurements (smiles, units_symbol, numeric_result) VALUES
  ('CN(C[C@@H](CCN1CCN(C(CO)(CO)c2ccco2)CC1)c1ccc(Cl)c(Cl)c1)C(=O)c1cc(C#N)cc2ccccc12', 'µmol/kg', 0.071);

# context switch: different molecule, same ED50
ED50 measured on CN(C[C@@H](CCN1CCN([C@@H](c2ccco2)[C@H](O)CO)CC1)c1ccc(Cl)c(Cl)c1)C(=O)c1cc(C#N)cc2ccccc12 = 0.077

====

- Assayed Target: cloned human NK1 receptors (Homo sapiens, UniProt P25103)
- Construct: expressed in transfected cells
- Sequence (P25103 whole entry): as the sequence (P25103 whole entry) above
- Protocol Notes: Ca2+ measurements using FLIPR for NK1 activity in CHO cells
- Format: cell-based
- Experimental Context: substance P 10^-8 M as agonist; compound applied 7 min before; pA2 calculated from IC50
Experimental Readout: Kb (nM)
Output spec: scalar in nM, unitless text.

INSERT INTO assay_data (molecule, numeric_result) VALUES
  ('CN(C[C@@H](CCN1CCN([C@@H](c2cc3ccccc3o2)[C@H](O)CO)CC1)c1ccc(Cl)c(Cl)c1)C(=O)c1cc(C#N)cc2ccccc12', 20),
  ('CN(C[C@@H](CCN1CCN([C@@H](c2ccco2)[C@H](O)CO)CC1)c1ccc(Cl)c(Cl)c1)C(=O)c1cc(C#N)cc2ccccc12', 1.26),
  ('CN(C[C@@H](CCN1CCN([C@@H](c2ccc3c(c2)OCO3)[C@H](O)CO)CC1)c1ccc(Cl)c(Cl)c1)C(=O)c1cc(C#N)cc2ccccc12', 0.794);

Kindly consider the entry below.
Per the record, CN(C[C@@H](CCN1CCN(C(c2ccco2)C(O)CO)CC1)c1ccc(Cl)c(Cl)c1)C(=O)c1cc(C#N)cc2ccccc12 (stereo partly shown) has Kb of 0.398

Every entry's value here was drawn from patent EP1954678B1.
